All values here come from ChEMBL document CHEMBL1641588.

# System: Streptococcus pyogenes
# Run Description: Antibacterial activity against Streptococcus pyogenes at 1000 ug/mL after 72 hrs by agar diffusion assay
# Type: functional
# Test Parameters: read-out: IZ
Property Label: zone of inhibition at 1000 µg/mL (mm)
Give the quantity in mm, number only.

Just so you know, measured zone of inhibition at 1000 µg/mL for O=c1oc2c(Cl)cc(Cl)cc2cc1-c1nc2ccccc2c2nc3c4nsnc4ccc3n12 came out at 20

Documented zone of inhibition at 1000 µg/mL of CC1(C)S[C@@H]2[C@H](NC(=O)[C@H](N)c3ccccc3)C(=O)N2[C@H]1C(=O)O [AMPICILLIN] : 35

Looking up Cc1cccc2cc(-c3nc4ccccc4c4nc5c6nsnc6ccc5n34)c(=O)oc12 , I see its zone of inhibition at 1000 µg/mL listed as 24

Sample O=c1oc2c(Cl)cc(Cl)cc2cc1-c1nc2ccccc2c2nc3ccccc3n12 ; zone of inhibition at 1000 µg/mL observed: 38

// zone of inhibition at 1000 µg/mL lookup, compound = O=c1oc2c(Br)cc(Br)cc2cc1-c1nc2ccccc2c2nc3ccccc3n12 , result: 36

----------
Assign zone of inhibition at 1000 µg/mL to each entry below.
# System: Streptococcus pyogenes
# Run Description: Antibacterial activity against Streptococcus pyogenes at 1000 ug/mL after 72 hrs by agar diffusion assay
# Type: functional
# Test Parameters: read-out: IZ
Numbers only here, please. The scale is mm.

zone of inhibition at 1000 µg/mL for O=c1oc2ccc([N+](=O)[O-])cc2cc1-c1nc2ccccc2c2nc3c4nsnc4ccc3n12 is 29

The recorded zone of inhibition at 1000 µg/mL for entry O=c1oc2c(Br)cccc2cc1-c1nc2ccccc2c2nc3ccccc3n12 equals 27

response.value for O=c1oc2c(Br)cc(Br)cc2cc1-c1nc2ccccc2c2nc3c4nsnc4ccc3n12 (field: zone of inhibition at 1000 µg/mL) = 37

Please fill in: zone of inhibition at 1000 µg/mL reported for O=c1oc2c(Br)cccc2cc1-c1nc2ccccc2c2nc3c4nsnc4ccc3n12 = 23

# molecule O=c1oc2ccccc2cc1-c1nc2ccccc2c2nc3c4nsnc4ccc3n12 ; its zone of inhibition at 1000 µg/mL = 22

----------
# Tested on: Escherichia coli
# Run Description: Antibacterial activity against Escherichia coli by liquid dilution method
# Type: functional
Property Label: MIC (µg/mL)
Unit µg/mL implied. Number only.

Record O=c1oc2ccc([N+](=O)[O-])cc2cc1-c1nc2ccccc2c2nc3c4nsnc4ccc3n12 / Escherichia coli, MIC recorded as 35

Note to self: MIC of O=c1oc2c(Br)cc(Br)cc2cc1-c1nc2ccccc2c2nc3ccccc3n12 with Escherichia coli was 15

Tested system Escherichia coli; MIC recorded for Cc1cccc2cc(-c3nc4ccccc4c4nc5ccccc5n34)c(=O)oc12 was 40

Simply: O=c1oc2c(Br)cccc2cc1-c1nc2ccccc2c2nc3ccccc3n12 , Escherichia coli, MIC = 45

Let me check: O=c1oc2ccccc2cc1-c1nc2ccccc2c2nc3ccccc3n12 , system Escherichia coli, measured MIC is 25

Let me check: O=c1oc2ccccc2cc1-c1nc2ccccc2c2nc3c4nsnc4ccc3n12 , system Escherichia coli, measured MIC is 45

Escherichia coli data for Cc1cccc2cc(-c3nc4ccccc4c4nc5c6nsnc6ccc5n34)c(=O)oc12 ; its MIC: 45

Test item O=c1oc2c(Cl)cc(Cl)cc2cc1-c1nc2ccccc2c2nc3c4nsnc4ccc3n12 ; Escherichia coli; reported MIC was 30

Considering CC1(C)S[C@@H]2[C@H](NC(=O)[C@H](N)c3ccccc3)C(=O)N2[C@H]1C(=O)O [AMPICILLIN] , its MIC with Escherichia coli was recorded as 15
